// provenance: patent US8030346B2

Let's go through some pIC50 measurements on Collagen Prolyl Hydroxylase II (CPH2) (Homo sapiens) together.
Sequence (O15460 22-533 isoform O15460-2 limits assumed): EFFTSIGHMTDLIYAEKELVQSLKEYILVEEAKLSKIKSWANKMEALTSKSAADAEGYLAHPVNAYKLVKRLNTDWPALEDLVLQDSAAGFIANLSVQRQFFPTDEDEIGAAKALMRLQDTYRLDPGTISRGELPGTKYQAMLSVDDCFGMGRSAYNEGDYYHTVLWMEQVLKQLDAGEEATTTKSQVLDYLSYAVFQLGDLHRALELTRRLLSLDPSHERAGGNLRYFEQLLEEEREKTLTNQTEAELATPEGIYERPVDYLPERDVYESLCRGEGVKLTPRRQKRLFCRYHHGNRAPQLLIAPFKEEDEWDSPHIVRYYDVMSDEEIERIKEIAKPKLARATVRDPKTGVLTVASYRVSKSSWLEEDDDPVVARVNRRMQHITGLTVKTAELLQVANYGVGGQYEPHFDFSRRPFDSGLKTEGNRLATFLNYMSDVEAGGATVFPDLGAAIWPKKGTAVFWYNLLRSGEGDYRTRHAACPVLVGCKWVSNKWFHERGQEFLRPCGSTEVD
Sequence (P07237 18-508 partner): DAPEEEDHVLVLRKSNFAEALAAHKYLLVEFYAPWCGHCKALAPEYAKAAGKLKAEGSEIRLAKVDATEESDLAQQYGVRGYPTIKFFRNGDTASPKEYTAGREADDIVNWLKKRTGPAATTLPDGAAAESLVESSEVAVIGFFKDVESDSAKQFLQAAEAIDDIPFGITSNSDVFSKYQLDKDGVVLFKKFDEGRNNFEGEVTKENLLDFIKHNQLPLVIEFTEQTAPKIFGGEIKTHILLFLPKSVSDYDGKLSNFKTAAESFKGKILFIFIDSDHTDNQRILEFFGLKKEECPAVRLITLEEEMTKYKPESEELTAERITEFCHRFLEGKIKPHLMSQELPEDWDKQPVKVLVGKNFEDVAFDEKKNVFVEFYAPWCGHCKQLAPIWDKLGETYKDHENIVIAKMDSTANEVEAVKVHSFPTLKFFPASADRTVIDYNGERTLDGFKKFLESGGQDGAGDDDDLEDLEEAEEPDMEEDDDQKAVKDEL
Entry type: numeric. Quantity: pIC50, the -log10 of concentration in molar units.

>>> recorded_measurement("Cn1c(=O)c(C(=O)NCC(=O)O)c(O)c2sc(Br)cc21")
7.52

Next compound, pIC50 to be filled in.
Qu. Collagen Prolyl Hydroxylase II (CPH2) (Homo sapiens) / pIC50 / "Cn1c(=O)c(C(=O)CCC(=O)O)c(O)c2sccc21" : value?
Ans. 4.46

----------
Notes on pIC50 obtained with HIF PHD2 (Homo sapiens).
Sequence (Q9GZT9 whole entry): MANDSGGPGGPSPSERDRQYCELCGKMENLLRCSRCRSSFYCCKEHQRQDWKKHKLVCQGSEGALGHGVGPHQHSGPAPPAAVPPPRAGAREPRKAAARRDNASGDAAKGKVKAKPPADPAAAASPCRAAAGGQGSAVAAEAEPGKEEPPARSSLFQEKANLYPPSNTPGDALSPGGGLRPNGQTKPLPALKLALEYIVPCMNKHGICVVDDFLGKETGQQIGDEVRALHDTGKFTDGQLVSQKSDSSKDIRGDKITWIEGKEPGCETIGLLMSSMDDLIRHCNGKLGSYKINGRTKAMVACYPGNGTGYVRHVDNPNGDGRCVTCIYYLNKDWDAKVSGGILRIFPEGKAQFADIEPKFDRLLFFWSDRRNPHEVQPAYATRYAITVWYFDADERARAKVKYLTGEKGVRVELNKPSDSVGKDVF
Scale note: pIC50 = -log10(concentration in M).

Below: 2 compounds and their reported pIC50.
>>> recorded_measurement("Cn1c(=O)c(C(=O)NCC(=O)O)c(O)c2sc(-c3ccc(F)cc3)cc21")
7.82
>>> recorded_measurement("Cn1c(=O)c(C(=O)NCC(=O)O)c(O)c2sc(-c3ccccc3)cc21")
7.68

Qu. # lookup: pIC50 of "Cc1ccsc1-c1cc2c(s1)c(O)c(C(=O)NCC(=O)O)c(=O)n2C"
Ans. 7.11

Qu. Which pIC50 is reported for this compound? "Cc1csc2c(O)c(C(=O)NCC(=O)O)c(=O)n(C)c12"
Ans. 7.62

Qu. Reported pIC50 for "Cn1c(=O)c(C(=O)NCC(=O)O)c(O)c2sc(Br)cc21" : what is it?
Ans. 8.14

Qu. Dear colleague, I am looking for the recorded pIC50 of the following compound: "Cn1c(=O)c(C(=O)NCC(=O)O)c(O)c2sc(-c3ccc(Cl)cc3)nc21"
Ans. 7.33

Qu. Tell me the measured pIC50 of "Cc1ncccc1-c1cc2c(s1)c(O)c(C(=O)NCC(=O)O)c(=O)n2C" , please.
Ans. 7.80

Qu. Request the reported pIC50 associated with "Cn1c(=O)c(C(=O)CCC(=O)O)c(O)c2sccc21"
Ans. 8.52
